quantity-kind: melting point

-- ask State the recorded melting point for this entry: Cn1c(CCNC(=O)C(F)(F)F)cc2cccc(F)c21
-- reply 108 to 110 °C

-- ask // repeat for O=C(c1ccc(F)cc1)C1CCN(CCN2CNc3ccccc3C2=O)CC1 and report
-- reply 203 °C

-- ask Another compound to look at: N=C(N)NN=C1CCc2ccc(N)cc21
-- reply > 280 °C

-- ask For CC(COc1ccccc1)=C1SC(=O)NC1=O then?
-- reply 153 to 155 °C

-- ask Proceed to CCCN(CCC)C(=O)n1cnc(S(=O)(=O)CC)n1
-- reply 44 to 45 °C

-- ask Consider next the compound COCCCN(c1nc(Cl)nc(N(CCCOC)C2CC(C)(C)NC(C)(C)C2)n1)C1CC(C)(C)NC(C)(C)C1 in the same way.
-- reply 160 to 161 °C

-- ask How about this compound: CC/C(=C\C=C\C(O)(C(F)(F)F)C(F)(F)F)c1cccc(CCc2ccc(CO)c(CO)c2)c1
-- reply 104 °C

-- ask // same read-out, input: COc1ccc2c(OC(C)C)c(C(N)=O)sc2c1
-- reply 164 to 166 °C

-- ask Subsequent entry: CN(C)S(=O)(=O)c1cc(-n2c(=O)cc(C(F)(F)F)[nH]c2=O)ccc1Cl
-- reply 281 to 283 °C

-- ask Then this compound: CCCCCCCCCCCCCCCC(=O)NCCCCCCCCCCCC(=O)O
-- reply 119 to 121 °C

-- ask Try Cc1cc(-n2ccnc2)c2cccc(OCc3c(Cl)ccc(S(=O)(=O)N4CCC[C@H]4C(=O)NCC4CCN(CCO)CC4)c3Cl)c2n1 next.
-- reply 160 °C

-- ask And then O=C(c1cccc(C(F)(F)F)c1)N(CCCCn1ccnc1)C1=Nc2cccc3cccc1c23 , what is it?
-- reply 165 to 167 °C

-- ask Follow-up entry: CC1CC2=CC(=O)CCC2C2C(F)CC3(C)C(OCc4ccc(S(N)(=O)=O)cc4)CCC3C12 (configuration not stated)
-- reply 232 °C

-- ask Also check COc1ccc(C=C(Br)Br)c(OC)c1
-- reply 147 to 148 °C

-- ask What would you report for CCC(C)(CC)c1nnc(NC(=O)c2c(OC)cccc2OC)s1 ?
-- reply 208 to 210 °C

-- ask Same for O=C(Oc1ccccc1)N1CCC(Sc2ccncc2)CC1
-- reply 102 to 104 °C

Source of measurements: a melting point compilation (Tetko et al.; mined from patent text by program, amines drawn as free bases though some values may be those of a salt)
